Here the recorded IC50 is given for each entry.
measurement.target: UniProt O75762
Sequence (O75762 whole entry): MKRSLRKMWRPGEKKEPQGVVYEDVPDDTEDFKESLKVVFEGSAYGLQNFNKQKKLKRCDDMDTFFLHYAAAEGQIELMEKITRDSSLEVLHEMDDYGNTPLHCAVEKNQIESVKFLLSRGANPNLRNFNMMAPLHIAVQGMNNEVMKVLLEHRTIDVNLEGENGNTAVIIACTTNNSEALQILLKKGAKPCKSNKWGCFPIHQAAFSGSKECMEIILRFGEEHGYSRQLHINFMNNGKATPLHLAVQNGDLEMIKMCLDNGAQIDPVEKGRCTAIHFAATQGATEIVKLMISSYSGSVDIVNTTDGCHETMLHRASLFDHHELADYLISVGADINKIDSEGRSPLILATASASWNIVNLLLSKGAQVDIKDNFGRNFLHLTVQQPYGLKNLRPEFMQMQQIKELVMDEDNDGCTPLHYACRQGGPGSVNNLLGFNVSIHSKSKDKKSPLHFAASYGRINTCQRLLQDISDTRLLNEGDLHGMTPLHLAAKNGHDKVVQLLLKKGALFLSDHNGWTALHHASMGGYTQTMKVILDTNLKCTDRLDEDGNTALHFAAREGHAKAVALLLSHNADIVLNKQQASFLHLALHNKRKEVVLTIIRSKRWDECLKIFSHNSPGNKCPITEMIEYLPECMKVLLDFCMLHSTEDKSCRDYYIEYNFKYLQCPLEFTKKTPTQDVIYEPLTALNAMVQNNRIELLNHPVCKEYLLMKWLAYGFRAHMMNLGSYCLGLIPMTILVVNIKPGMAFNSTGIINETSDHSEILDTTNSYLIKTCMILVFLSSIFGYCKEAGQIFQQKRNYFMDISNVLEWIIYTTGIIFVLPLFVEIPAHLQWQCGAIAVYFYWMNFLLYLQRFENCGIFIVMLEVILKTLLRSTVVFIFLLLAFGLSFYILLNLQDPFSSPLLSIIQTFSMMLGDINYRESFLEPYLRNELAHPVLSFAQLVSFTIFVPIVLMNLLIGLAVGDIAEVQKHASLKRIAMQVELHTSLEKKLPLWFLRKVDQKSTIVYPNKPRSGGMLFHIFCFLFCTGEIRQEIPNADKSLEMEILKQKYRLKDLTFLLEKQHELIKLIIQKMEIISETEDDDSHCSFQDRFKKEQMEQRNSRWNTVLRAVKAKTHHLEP
experiment.summary: In vitro inhibition of human TRPA1, whole cell patch configuration
Format: cell-based
measurement.setup: current activation 10 μM AITC, tested concentrations 320 pM to 3.2 μM, read-out: hTRPA1 IC50
measured.attribute: IC50 (nM)

> print(dat)
                                   compound  measured.attribute  value.measured
1  CCC(=O)Cn1c(=O)c2c(ncn2C(C)C(=O)Nc2ccnc(-c3cnc(N4CC5CC5C4)nc3)n2)n(C)c1=O (stereo not shown)                IC50               8
2  CC#CCn1c(=O)c2c(ncn2[C@@H](C)C(=O)Nc2csc(-c3ccc(N4CC5C(C4)C5(F)F)nc3)n2)n(C)c1=O (stereo partly shown)                IC50               1
3  Cc1noc(Cn2c(=O)c3c(ncn3CC(=O)Nc3csc(-c4cnc(C)c(C(F)(F)F)c4)n3)n(C)c2=O)n1                IC50               1
4  C[C@@H](C(=O)Nc1csc(-c2ccc(N3CC4CC4C3)nc2)n1)n1cnc2c1c(=O)n(CC#N)c(=O)n2C (stereo partly shown) [Compound 64]                IC50               2

----------
Here the recorded Average PWL Post-Treatment is given for each entry.
Test system: CFA-induced cold hypersensitivity of the hind paw
experiment.summary: CFA-induced pain test, cold hypersensitivity (cold plate paw withdrawal latency)
Format: in vivo
measurement.setup: 1 mg/kg PO, 1-2 hour pre-treatment; cold plate 1° C.; solution in 4% DMSO; 5% Tween-80; 20% Cremophor EL; and 71% water
measured.attribute: Average PWL Post-Treatment

> print(dat)
                                   molecule          measured.attribute  value.measured
1  CC(=O)Cn1c(=O)c2c(ncn2[C@@H](C)C(=O)Nc2cncc(-c3cnc(N4CC5C(C4)C5(F)F)nc3)n2)n(C)c1=O (stereo partly shown) [Compound 74]  Average PWL Post-Treatment           271.3
2  CC(=O)Cn1c(=O)c2c(ncn2[C@@H](C)C(=O)Nc2ccnc(-c3cnc(N4CC5C(C4)C5(F)F)nc3)n2)n(C)c1=O (stereo partly shown) [Compound 61]  Average PWL Post-Treatment           235.4
3  Cc1cc(Cn2c(=O)c3c(ncn3[C@@H](C)C(=O)Nc3cncc(-c4cnc(C(F)(F)F)nc4)n3)n(C)c2=O)no1 [Compound 21]  Average PWL Post-Treatment           208.5
4  Cc1noc(Cn2c(=O)c3c(ncn3[C@@H](C)C(=O)Nc3cncc(-c4cnc(C(F)(F)F)nc4)n3)n(C)c2=O)n1 [Compound 160]  Average PWL Post-Treatment           269.6

----------
Test system: CFA-induced cold hypersensitivity of the hind paw
experiment.summary: CFA-induced pain test, cold hypersensitivity (cold plate paw withdrawal latency)
Type: in vivo
measurement.setup: 3 mg/kg PO, 1-2 hour pre-treatment; cold plate 1° C.; solution in 4% DMSO; 5% Tween-80; 20% Cremophor EL; and 71% water
measured.attribute: PWL Change (s)

> print(dat)
                                   compound  measured.attribute  value.measured
1  CC(=O)Cn1c(=O)c2c(ncn2[C@@H](C)C(=O)Nc2cccc(-c3cnc(N4CC5C(C4)C5(F)F)nc3)n2)n(C)c1=O (stereo partly drawn)          PWL Change           154.9
2  CC(=O)Cn1c(=O)c2c(ncn2[C@@H](C)C(=O)Nc2cccc(-c3cnc(C)c(C(F)(F)F)c3)n2)n(C)c1=O          PWL Change           157.3
3  Cc1cc(Cn2c(=O)c3c(ncn3[C@@H](C)C(=O)Nc3cncc(-c4cnc(C(F)(F)F)nc4)n3)n(C)c2=O)no1          PWL Change           148.8

Where do these numbers come from? They come from patent US10221177B2.
